B1: library; a variant is named by its letters at N, in order (parent)
chain: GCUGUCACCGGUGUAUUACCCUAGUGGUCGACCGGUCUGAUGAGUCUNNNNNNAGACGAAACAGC

# Variants of: B1
# assay: normalized RNA/DNA level without ligand (relative to sTRSVctl = 100) (log10 (% of sTRSVctl)); ligand: hypoxanthine (xanthine aptamer); higher = less ribozyme self-cleavage, higher mRNA level
# details: HEK293T, reporter: mCherry (pCS4076), ligand present: no
measure_name: normalized RNA/DNA level without ligand (log10)
Numbers only.

Consider the reported normalized RNA/DNA level without ligand (log10) for these variants:
seq_string | recorded_number
GCUGUCACCGGUGUAUUACCCUAGUGGUCGACCGGUCUGAUGAGUCUUGUACGAGACGAAACAGC [UGUACG] | 1.83
GCUGUCACCGGUGUAUUACCCUAGUGGUCGACCGGUCUGAUGAGUCUUACGGAAGACGAAACAGC [UACGGA] | 1.59
GCUGUCACCGGUGUAUUACCCUAGUGGUCGACCGGUCUGAUGAGUCUAGCAUAAGACGAAACAGC [AGCAUA] | 1.82

# batch size: 2; output normalized RNA/DNA level without ligand (log10) per entry
1. GCUGUCACCGGUGUAUUACCCUAGUGGUCGACCGGUCUGAUGAGUCUGUAUACAGACGAAACAGC [GUAUAC]
2. GCUGUCACCGGUGUAUUACCCUAGUGGUCGACCGGUCUGAUGAGUCUUAUUAGAGACGAAACAGC [UAUUAG]

### Response
1: 1.82; 2: 1.68
